Target: MAPK14 (human) (UniProt Q16539)
Sequence (Q16539 whole entry, looked up): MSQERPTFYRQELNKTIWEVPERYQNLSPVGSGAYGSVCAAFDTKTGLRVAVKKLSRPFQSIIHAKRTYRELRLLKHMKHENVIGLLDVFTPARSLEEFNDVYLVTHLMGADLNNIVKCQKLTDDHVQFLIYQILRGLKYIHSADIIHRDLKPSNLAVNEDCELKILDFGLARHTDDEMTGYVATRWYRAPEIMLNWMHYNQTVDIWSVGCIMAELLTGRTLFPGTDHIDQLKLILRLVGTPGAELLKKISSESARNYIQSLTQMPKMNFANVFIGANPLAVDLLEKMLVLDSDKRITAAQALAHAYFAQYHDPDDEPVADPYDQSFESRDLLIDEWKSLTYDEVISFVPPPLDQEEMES
Experiment: Inhibition of TNF Release from Human Peripheral Blood Mononuclear Cells
Conditions: pbmc
experimentalReadout: IC50

{"structureSmiles": "Fc1ccc(-c2nn3ccccc3c2-c2ccnc(NCc3ccc(Cl)cc3)c2)cc1", "IC50": "< 500 nM"}

Here is another molecule to look at.
IC50 lookup needed for NC(=O)c1ccc2c(-c3ccnc(NC4CC4)n3)c(-c3ccc(F)cc3)nn2c1 , thanks.
< 500 nM

----------
pIC50: −log10 of the molar value.
Heads up, these molecules all have pIC50 values measured for MAPK14 (UniProt Q16539).

Solved entries:
{"structureSmiles": "CN(C)CCCNc1nccc(-c2c(-c3ccc(F)c(Cl)c3)nn3cc(C(F)(F)F)ccc23)n1", "pIC50": "7.00 to 8.00"}
{"structureSmiles": "CCCN(CCC)CCNc1nccc(-c2c(-c3cccc(Cl)c3)nn3cc(C(F)(F)F)ccc23)n1", "pIC50": "6.00 to 7.00"}
{"structureSmiles": "Fc1ccc(-c2nn3cc(C(F)(F)F)ccc3c2-c2ccnc(NCCN3CCCC3)n2)cc1Cl", "pIC50": "6.00 to 7.00"}
{"structureSmiles": "CCCN1CCN(CCNc2nccc(-c3c(-c4ccc(F)c(Cl)c4)nn4cc(C(F)(F)F)ccc34)n2)CC1", "pIC50": "7.00 to 8.00"}
{"structureSmiles": "OCc1ccn2nc(-c3ccc(F)cc3)c(-c3ccncc3)c2c1", "pIC50": "> 6.30"}
{"structureSmiles": "FC(F)(F)c1ccc2c(-c3ccnc(NCCN4CCCC4)n3)c(-c3cccc(Cl)c3)nn2c1", "pIC50": "6.00 to 7.00"}
{"structureSmiles": "NC(=O)c1ccc2c(-c3ccnc(NC4CC4)n3)c(-c3ccc(F)cc3)nn2c1", "pIC50": "> 6.30"}
{"structureSmiles": "FC(F)(F)c1ccc(-c2nn3cc(C(F)(F)F)ccc3c2-c2ccnc(NCCCN3CCCCC3)n2)cc1", "pIC50": "5.00 to 6.00"}

Under MAPK14 (UniProt Q16539): pIC50 value of Fc1ccc(-c2nn3cc(C(F)(F)F)ccc3c2-c2ccncc2)cc1 ?
> 6.30

Please tell me: pIC50 of Fc1ccc(-c2nn3cc(C(F)(F)F)ccc3c2-c2ccnc(NCCN3CCCCC3)n2)cc1Cl , system MAPK14 (UniProt Q16539)?
6.00 to 7.00

Hi! What's the reported pIC50 for CN(C)CCCNc1nccc(-c2c(-c3ccc(F)cc3)nn3cc(C(F)(F)F)ccc23)n1 on MAPK14 (UniProt Q16539)?
6.00 to 7.00

----------
Reported IC50, MAPK14 (UniProt Q16539).

{"structureSmiles": "CCCN1CCN(CCNc2nccc(-c3c(-c4ccc(C(F)(F)F)cc4)nn4cc(C(F)(F)F)ccc34)n2)CC1", "assaySystem": "MAPK14 (UniProt Q16539)", "IC50": "1000 to 10000 nM"}
{"structureSmiles": "CCN(CC)CCNc1nccc(-c2c(-c3cccc(Cl)c3)nn3cc(C(F)(F)F)ccc23)n1", "assaySystem": "MAPK14 (UniProt Q16539)", "IC50": "100 to 1000 nM"}
{"structureSmiles": "CN1CCN(CCCNc2nccc(-c3c(-c4ccc(F)c(Cl)c4)nn4cc(C(F)(F)F)ccc34)n2)CC1", "assaySystem": "MAPK14 (UniProt Q16539)", "IC50": "10 to 100 nM"}
{"structureSmiles": "Fc1ccc(-c2nn3cc(C(F)(F)F)ccc3c2-c2ccnc(NC3CC3)n2)cc1", "assaySystem": "MAPK14 (UniProt Q16539)", "IC50": "< 500 nM"}
{"structureSmiles": "Fc1ccc(-c2nn3cc(C(F)(F)F)ccc3c2-c2ccnc(NCCCN3CCCCC3)n2)cc1Cl", "assaySystem": "MAPK14 (UniProt Q16539)", "IC50": "100 to 1000 nM"}
{"structureSmiles": "CN(C)CCCNc1nccc(-c2c(-c3ccc(C(F)(F)F)cc3)nn3cc(C(F)(F)F)ccc23)n1", "assaySystem": "MAPK14 (UniProt Q16539)", "IC50": "1000 to 10000 nM"}
{"structureSmiles": "Nc1nccc(-c2c(-c3ccc(F)cc3)nn3ccccc23)n1", "assaySystem": "MAPK14 (UniProt Q16539)", "IC50": "< 500 nM"}
{"structureSmiles": "CCCCNc1nccc(-c2c(-c3ccc(F)cc3)nn3ccccc23)n1", "assaySystem": "MAPK14 (UniProt Q16539)", "IC50": "< 500 nM"}
{"structureSmiles": "FC(F)(F)c1ccc2c(-c3ccnc(NCCCCN4CCCC4)n3)c(-c3cccc(Cl)c3)nn2c1", "assaySystem": "MAPK14 (UniProt Q16539)", "IC50": "10 to 100 nM"}
{"structureSmiles": "Nc1nccc(-c2c(-c3ccc(F)cc3)nn3cc(C(F)(F)F)ccc23)n1", "assaySystem": "MAPK14 (UniProt Q16539)", "IC50": "< 500 nM"}

Notebook: pull reported IC50 for MAPK14 (UniProt Q16539), entry NC(=O)c1ccc2c(-c3ccnc(NCCCN4CCCCC4)n3)c(-c3ccc(F)cc3)nn2c1
< 500 nM

Return IC50 measured with MAPK14 (UniProt Q16539) given this compound: FC(F)(F)c1ccc2c(-c3ccnc(NCCCN4CCOCC4)n3)c(-c3cccc(Cl)c3)nn2c1
Sequence (Q16539 whole entry, looked up): as above
10 to 100 nM
